Molecular target: cytoplasmic dynein purified from bovine brain (Bos taurus)
Construct: Cytoplasmic dynein was purified from bovine brain tissue; from tissue; host or cells: bovine brain
Sequence (A0A3Q1NEU9 1-4657): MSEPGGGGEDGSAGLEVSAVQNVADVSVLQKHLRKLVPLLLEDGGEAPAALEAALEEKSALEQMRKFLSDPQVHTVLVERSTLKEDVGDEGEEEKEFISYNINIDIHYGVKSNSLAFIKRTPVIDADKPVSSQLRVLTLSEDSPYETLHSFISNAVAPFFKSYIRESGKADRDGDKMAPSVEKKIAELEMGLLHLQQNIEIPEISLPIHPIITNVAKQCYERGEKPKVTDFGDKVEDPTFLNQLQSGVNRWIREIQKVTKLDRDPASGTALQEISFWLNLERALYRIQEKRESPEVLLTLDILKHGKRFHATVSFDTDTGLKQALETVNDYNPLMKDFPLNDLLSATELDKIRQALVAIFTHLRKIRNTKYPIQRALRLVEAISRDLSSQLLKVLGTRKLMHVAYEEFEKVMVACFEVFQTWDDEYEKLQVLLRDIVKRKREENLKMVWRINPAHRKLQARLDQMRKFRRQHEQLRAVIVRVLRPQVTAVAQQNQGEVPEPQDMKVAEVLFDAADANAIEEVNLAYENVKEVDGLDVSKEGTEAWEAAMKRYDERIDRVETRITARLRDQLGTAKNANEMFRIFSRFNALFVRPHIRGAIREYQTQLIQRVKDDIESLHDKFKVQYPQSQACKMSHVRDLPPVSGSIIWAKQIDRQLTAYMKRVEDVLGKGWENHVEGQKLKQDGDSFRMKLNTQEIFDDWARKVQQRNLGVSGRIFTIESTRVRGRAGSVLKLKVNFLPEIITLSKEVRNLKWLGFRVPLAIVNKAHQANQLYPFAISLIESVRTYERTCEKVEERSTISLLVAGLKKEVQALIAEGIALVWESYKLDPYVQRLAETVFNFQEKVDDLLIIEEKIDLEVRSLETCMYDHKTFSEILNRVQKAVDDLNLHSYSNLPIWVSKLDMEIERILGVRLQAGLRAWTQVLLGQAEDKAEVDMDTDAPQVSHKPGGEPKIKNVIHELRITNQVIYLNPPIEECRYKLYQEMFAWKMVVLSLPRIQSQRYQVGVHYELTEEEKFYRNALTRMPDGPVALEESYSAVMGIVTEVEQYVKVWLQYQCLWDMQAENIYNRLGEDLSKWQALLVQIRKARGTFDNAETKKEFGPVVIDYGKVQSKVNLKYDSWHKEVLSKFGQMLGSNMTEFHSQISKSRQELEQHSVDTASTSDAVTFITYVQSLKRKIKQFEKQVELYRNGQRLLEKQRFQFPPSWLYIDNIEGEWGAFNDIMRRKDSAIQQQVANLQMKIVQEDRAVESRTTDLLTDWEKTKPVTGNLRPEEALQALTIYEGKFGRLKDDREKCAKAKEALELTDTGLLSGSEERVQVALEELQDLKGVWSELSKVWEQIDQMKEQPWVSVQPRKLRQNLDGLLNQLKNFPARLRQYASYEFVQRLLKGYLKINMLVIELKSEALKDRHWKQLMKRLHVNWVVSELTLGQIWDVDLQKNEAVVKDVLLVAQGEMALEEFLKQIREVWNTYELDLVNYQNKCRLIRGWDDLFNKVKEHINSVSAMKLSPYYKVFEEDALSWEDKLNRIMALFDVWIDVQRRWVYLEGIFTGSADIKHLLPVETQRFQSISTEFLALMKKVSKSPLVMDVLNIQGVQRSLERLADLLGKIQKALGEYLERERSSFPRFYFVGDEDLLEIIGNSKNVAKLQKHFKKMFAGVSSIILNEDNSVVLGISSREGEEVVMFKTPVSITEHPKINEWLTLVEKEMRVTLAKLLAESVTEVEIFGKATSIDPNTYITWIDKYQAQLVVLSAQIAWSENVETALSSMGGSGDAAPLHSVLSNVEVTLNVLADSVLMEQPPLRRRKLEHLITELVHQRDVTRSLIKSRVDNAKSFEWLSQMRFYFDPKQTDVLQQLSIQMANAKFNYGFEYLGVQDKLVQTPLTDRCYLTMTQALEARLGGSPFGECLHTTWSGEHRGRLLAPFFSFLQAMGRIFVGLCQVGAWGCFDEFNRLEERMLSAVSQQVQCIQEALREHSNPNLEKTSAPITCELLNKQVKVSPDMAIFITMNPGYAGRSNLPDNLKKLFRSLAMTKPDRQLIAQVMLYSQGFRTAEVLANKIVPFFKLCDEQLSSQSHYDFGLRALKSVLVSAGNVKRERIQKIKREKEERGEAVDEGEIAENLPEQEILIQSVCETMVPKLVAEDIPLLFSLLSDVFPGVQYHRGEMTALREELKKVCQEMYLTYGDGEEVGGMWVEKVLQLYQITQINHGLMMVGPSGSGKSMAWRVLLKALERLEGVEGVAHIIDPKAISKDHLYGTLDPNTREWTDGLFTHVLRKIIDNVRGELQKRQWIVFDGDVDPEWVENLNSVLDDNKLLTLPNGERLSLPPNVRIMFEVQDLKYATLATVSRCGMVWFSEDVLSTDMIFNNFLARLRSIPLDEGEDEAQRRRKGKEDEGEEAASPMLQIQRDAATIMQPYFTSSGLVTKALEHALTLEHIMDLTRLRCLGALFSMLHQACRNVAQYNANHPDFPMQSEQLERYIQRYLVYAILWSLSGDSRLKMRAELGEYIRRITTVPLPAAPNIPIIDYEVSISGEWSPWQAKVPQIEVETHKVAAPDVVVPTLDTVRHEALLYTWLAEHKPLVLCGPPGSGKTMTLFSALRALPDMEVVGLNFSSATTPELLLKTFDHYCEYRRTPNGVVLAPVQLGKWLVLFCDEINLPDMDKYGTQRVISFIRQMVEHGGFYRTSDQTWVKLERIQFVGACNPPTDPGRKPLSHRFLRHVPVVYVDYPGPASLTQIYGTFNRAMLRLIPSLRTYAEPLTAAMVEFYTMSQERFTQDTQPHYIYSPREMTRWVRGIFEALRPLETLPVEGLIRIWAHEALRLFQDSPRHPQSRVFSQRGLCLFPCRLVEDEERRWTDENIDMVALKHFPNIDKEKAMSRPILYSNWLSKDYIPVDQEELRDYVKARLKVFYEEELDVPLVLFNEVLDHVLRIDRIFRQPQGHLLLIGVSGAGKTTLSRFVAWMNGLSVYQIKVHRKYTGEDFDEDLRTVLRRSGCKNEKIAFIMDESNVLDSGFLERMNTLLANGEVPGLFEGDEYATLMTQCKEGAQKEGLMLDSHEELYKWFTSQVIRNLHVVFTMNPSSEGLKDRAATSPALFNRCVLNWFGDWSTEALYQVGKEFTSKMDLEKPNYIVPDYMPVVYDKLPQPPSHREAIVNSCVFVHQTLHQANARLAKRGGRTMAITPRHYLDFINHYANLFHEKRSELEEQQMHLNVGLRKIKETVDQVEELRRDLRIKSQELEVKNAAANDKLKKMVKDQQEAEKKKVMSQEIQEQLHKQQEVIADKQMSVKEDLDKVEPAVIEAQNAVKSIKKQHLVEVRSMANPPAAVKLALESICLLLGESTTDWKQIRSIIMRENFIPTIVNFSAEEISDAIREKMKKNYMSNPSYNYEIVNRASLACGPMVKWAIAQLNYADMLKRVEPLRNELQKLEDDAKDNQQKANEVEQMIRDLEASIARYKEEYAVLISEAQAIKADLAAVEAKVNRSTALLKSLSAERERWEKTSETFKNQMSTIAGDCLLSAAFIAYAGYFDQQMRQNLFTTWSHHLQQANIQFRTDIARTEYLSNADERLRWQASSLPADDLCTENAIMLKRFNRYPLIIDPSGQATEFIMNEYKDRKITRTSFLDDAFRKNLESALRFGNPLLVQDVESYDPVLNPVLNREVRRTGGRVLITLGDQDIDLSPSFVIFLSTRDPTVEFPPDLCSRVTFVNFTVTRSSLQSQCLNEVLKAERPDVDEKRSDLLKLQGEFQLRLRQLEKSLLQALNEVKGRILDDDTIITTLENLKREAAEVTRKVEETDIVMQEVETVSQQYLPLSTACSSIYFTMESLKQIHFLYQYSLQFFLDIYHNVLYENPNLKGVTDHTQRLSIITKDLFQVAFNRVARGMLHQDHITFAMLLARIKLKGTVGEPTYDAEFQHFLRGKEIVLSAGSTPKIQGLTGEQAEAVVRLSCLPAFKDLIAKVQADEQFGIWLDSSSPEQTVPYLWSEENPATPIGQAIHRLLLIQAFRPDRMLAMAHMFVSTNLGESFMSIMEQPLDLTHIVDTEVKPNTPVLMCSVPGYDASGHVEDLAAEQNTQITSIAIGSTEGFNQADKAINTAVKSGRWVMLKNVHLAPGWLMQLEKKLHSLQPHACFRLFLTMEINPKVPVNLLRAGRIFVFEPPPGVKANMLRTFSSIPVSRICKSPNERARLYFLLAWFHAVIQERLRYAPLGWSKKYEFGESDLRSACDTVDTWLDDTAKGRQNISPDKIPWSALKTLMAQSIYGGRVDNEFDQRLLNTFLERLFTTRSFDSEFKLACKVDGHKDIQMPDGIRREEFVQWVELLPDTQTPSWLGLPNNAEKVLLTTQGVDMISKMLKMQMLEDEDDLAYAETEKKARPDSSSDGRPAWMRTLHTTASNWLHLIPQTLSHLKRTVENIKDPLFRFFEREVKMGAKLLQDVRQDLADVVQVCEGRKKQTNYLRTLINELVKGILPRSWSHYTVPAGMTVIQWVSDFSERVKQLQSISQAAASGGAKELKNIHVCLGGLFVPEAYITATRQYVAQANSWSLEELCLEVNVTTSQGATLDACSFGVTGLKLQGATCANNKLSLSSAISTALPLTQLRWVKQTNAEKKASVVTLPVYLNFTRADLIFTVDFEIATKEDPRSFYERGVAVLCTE
Assay: Microtubule surface gliding assay, dynein
Type: biochemical
Conditions: 100 μM
Protocol: To more directly examine whether cytoplasmic dynein is the direct target of the ciliobrevins, we evaluated their effects on dynein-dependent microtubule gliding in vitro. Cytoplasmic dynein was purified from bovine brain tissue, adsorbed onto glass slides, and then incubated with fluorescently labeled microtubules and ATP in the presence or absence of these compounds. We then imaged and quantified the resulting microtubule gliding velocities by epifluorescence microscopy. […]
parameter measured: dynein-dependent microtubule movement (gliding velocity)

If you can, please state the reported dynein-dependent microtubule movement (gliding velocity) value of N#C/C(C(=O)c1ccc(Cl)cc1Cl)=C1\NC(=O)c2ccc(Cl)cc2N1 [Example 31] .
at least five-fold

I have this compound here, N#C/C(C(=O)c1ccc(Cl)cc1Cl)=C1\NC(=O)c2ccccc2N1 [Example 1] , and I need its recorded dynein-dependent microtubule movement (gliding velocity).
at least five-fold

Would you kindly share the measured dynein-dependent microtubule movement (gliding velocity) for N#C/C(C(=O)c1ccccc1)=C1\NC(=O)c2ccccc2N1 [Example 16] ?
minimal effects

// query dynein-dependent microtubule movement (gliding velocity) value for entry N#C/C(C(=O)c1ccc(Cl)cc1)=C1\NC(=O)c2ccccc2N1 [Example 2]
minimal effects

###

biological target: cytoplasmic dynein purified from bovine brain (Bos taurus); construct: Cytoplasmic dynein was purified from bovine brain tissue; from tissue; host or cells: bovine brain; assay: Microtubule surface gliding assay, dynein; format: biochemical; settings: dynein-dependent microtubule gliding in vitro; read-out: IC50 of microtubule gliding inhibition
parameter measured: pIC50
# pIC50: negative log10 of molar concentration; output just the value

Reported pIC50 for N#C/C(C(=O)c1ccc(Cl)cc1Cl)=C1\NC(=O)c2ccccc2N1 : what is it?
4.52
